Here, each record is paired with measured inhibition data.
# TARGET SYSTEM: Glucose transporter (Leishmania mexicana) (UniProt O61059)
# ASSAY NAME: ST_JUDE_LEISH: Cytotoxicity at 2uM final concentration against transgenic Leishmania Mexicana promastigotes LmGT2 that are glucose transport deficient and complemented with the L. Mexicana glucose transporter 2. Activity is measured by DNA content using SYBR green in vitro
# Assay type: functional
Field format: number, assumed %, no unit text.

| COMPOUND | inhibition [%] |
| --- | --- |
| NCC1(c2nc(-c3ccc(Cl)c(O)c3)c(-c3ccncc3)[nH]2)CCCCC1 | 0.55 |
| COc1cccc(-c2cnc(-c3ccncc3)nc2C2CCN(Cc3ccc(NC(C)=O)cc3)CC2)c1 | 1.53 |
| Cc1nc(N)nc(N)c1OCc1cccc2c1ccc1ccccc12 | 2.84 |

Fill in the blank: the reported inhibition of O=C(Nc1nc2cc(S(=O)(=O)NCc3ccc(Cl)c(Cl)c3)ccc2n1CCCN1CCCC1)c1ccc(Cl)cc1 is ____.
3.04

Any idea what inhibition was measured for CCOc1cc(Cc2cnc(N)nc2N)cc(OCC)c1OCCCCC(=O)OC ?
0.19

Look at this compound and give its reported inhibition. COc1ccc(-c2cccc(NC(=O)c3cccc(Cl)c3)c2)cc1CN1CCCN(C)CC1
11.7

Which inhibition reading was recorded for the compound COc1ccc2c(NN=Cc3cccnc3)ccnc2c1 ?
-0.33

Given CCCCc1ccc(NC(=O)Nc2cccc(CCNCc3ccccc3)c2)cc1 , state its recorded inhibition.
10.2

What inhibition value was documented for this compound, CCCCNCc1ccc(-c2nc(CN(CCCn3ccnc3)C(=O)NC3CC3c3ccccc3)cs2)cc1 (stereo not drawn) ?
4.29

Which measured inhibition value corresponds to CCCCCCNC(=O)C1Cc2c([nH]c3cc(Cl)ccc23)C2(CCN(Cc3ccccc3)CC2)N1 (stereo not drawn) ?
5.18

----------
# TARGET SYSTEM: Solute carrier family 2, facilitated glucose transporter member 1 (Homo sapiens) (UniProt P11166)
# Sequence (P11166 whole entry): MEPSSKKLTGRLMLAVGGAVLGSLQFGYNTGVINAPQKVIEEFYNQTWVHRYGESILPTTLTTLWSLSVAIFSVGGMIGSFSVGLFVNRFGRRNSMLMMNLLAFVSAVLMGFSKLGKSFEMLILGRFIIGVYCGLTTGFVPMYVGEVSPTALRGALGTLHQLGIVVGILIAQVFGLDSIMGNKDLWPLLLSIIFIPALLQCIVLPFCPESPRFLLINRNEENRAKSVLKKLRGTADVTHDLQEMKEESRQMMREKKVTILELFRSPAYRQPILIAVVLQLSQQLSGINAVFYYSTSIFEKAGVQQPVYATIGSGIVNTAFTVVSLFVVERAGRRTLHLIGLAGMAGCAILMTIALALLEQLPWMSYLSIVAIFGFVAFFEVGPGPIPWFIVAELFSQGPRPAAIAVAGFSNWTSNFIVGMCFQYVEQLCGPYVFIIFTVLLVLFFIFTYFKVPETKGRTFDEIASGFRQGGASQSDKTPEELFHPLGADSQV
# ASSAY NAME: ST_JUDE_LEISH: Cytotoxicity at 2uM final concentration against transgenic Leishmania Mexicana promastigotes LmGLUT1 that are glucose transport deficient and complemented with the human glucose transporter GLUT1. Activity is measured by DNA content using SYBR green in vitro
# Assay type: functional
MEASURED ENDPOINT: inhibition
Quick note: number first, unit second.

| SMILES | inhibition |
| --- | --- |
| Cc1sc(N2CCN(C)CC2)nc1C(=O)Nc1ccc(F)cc1C(F)(F)F | 4.38% |

Find the recorded inhibition belonging to CN1CCC(C(=O)Nc2ccc(-c3ccc(-c4nc5cc(C(F)(F)F)ccc5[nH]4)s3)cc2)CC1 and report it.
-0.08%

May I ask what inhibition has been recorded for OCc1ccc2nc3c(cc2c1)-c1cccc2cccc-3c12 ?
3.6%

# lookup: inhibition of Cn1nccc1C(=O)NCCNCc1ccc(-c2ccc(-c3nc4cc(C(F)(F)F)ccc4[nH]3)s2)cc1
0.47%

----------
Recorded inhibition by entry
# TARGET SYSTEM: Solute carrier family 2, facilitated glucose transporter member 1 (Homo sapiens) (UniProt P11166)
# ASSAY NAME: ST_JUDE_LEISH: Cytotoxicity at 2uM final concentration against transgenic Leishmania Mexicana promastigotes LmGLUT1 that are glucose transport deficient and complemented with the human glucose transporter GLUT1. Activity is measured by DNA content using SYBR green in vitro
# Type: functional
Form entry: enter the amount, then its unit.

| MOLECULE | inhibition |
| --- | --- |
| Cc1nc(C)c(CC(=O)Nc2cccc(-c3cccc(-c4nc5cc(C(F)(F)F)ccc5[nH]4)c3)c2)s1 | 2.61% |

// returns reported inhibition for input CCOc1ccccc1C(=O)N1CCc2cc3nccc(N4CCN5CCC[C@H]5C4)c3cc21
-0.64%

// lookup inhibition for CCOC(=O)N[C@@H]1CN[C@@H](C#Cc2cc3c(Nc4ccc(OCc5cccc(F)c5)c(Cl)c4)ncnc3s2)C1
-1.82%
